- System: SK-MEL-5 melanoma
- ASSAY_TEXT: NCI-60 one-dose screen, 48 h (100 = growth as untreated, 0 = no growth, -100 = all killed)
- SETTINGS: 10 µM unless noted
- Protocol: Growth inhibition of the SK-MEL-5 human tumor cell line is measured as a screen for anti-cancer activity. Cells are grown in 96 well plates and exposed to the test compound for 48 hours. Compounds are tested at a single concentration, which is 10^-5 M for most compounds. The reported endpoint is percent growth (GI% or GIPRCNT), where numbers from 0 - 100% represent growth inhibition, and numbers from -100% - 0 represent cell death. For example, a value of 40 represents 60% growth inhibition. […]
The panel holds about 83,000 compounds, 20% with a hit somewhere; the sample as a whole holds those more often.
QUANTITY_KIND: growth (%)
Dear colleague, please return just the value in %, with no unit written.

Solved cases (3 shown):
In [3]: df
Out[3]:
                                   compound  reported_measurement
0  Cc1ccc(NC(=O)NC(=O)CSc2nc3ccccc3nc2C)cc1                  38.7
1  CCc1cc2c(cc1N1CCC(N3CCOCC3)CC1)C(C)(C)c1[nH]c3cc(C#N)ccc3c1C2=O                  10.2
2  Nc1cc2c(cc1Br)-c1c(C(=O)O)cccc1C2O (centres undefined)                  99.9

// below: growth requested for another compound
INPUT: Please report growth for the following compound: `Cn1c(=O)c(F)c(Nc2ccc(I)cc2F)c2c(=O)n(C[C@@H](O)CO)cnc21`
OUTPUT: 36.3
